Give pIC50 for every item shown.
Target: full-length beta-Catenin (Uniprot ID P35222) (Homo sapiens (Human)) (UniProt P35222)
Sequence (P35222 whole entry): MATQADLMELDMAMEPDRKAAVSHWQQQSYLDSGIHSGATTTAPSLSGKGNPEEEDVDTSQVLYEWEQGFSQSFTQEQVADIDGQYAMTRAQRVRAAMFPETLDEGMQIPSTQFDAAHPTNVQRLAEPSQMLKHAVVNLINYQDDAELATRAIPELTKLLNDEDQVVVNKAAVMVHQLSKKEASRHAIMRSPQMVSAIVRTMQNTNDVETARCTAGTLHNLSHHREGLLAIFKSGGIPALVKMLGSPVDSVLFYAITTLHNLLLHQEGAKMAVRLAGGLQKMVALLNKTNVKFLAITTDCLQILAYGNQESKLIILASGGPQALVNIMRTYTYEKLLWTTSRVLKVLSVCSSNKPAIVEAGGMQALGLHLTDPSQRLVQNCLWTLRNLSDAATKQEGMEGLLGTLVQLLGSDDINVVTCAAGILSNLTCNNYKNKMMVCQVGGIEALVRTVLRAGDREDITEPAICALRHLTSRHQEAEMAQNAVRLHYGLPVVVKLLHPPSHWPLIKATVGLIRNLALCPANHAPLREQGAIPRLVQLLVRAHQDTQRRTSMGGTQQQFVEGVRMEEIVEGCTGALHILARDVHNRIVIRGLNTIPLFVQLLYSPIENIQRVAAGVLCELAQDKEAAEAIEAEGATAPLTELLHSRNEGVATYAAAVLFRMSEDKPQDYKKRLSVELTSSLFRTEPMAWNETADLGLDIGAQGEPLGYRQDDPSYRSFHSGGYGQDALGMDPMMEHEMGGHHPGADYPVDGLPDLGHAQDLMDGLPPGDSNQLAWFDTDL
Assay: fluorescence polarization competition; peptide titrated against full-length beta-catenin + 5FAM-TCF4(10-53)
Starred links: 1 amine or outer side, 2 acyl side, 3 side chain; linkers in the order of their positions; H or OH if unused. Positions of bridges follow the written chain, without caps; N, C: chain ends. Non-standard residues stand in square brackets, D forms with d. Primed or numbered codes have the meaning given here. B5(3) = 2,2-bis(4-pentenyl)glycine (stitching residue), C=CCCCC(CCCC=C)(N[*:1])C(=O)[*:2]; B5 = 2-amino-2-(pent-4-en-1-yl)hept-6-enoic acid, C=CCCCC(CCCC=C)(N[*:1])C(=O)[*:2]; Bip = N[C@@H](Cc1ccc(-c2ccccc2)cc1)C(=O)O; Bta = N[C@@H](Cc1csc2ccccc12)C(=O)O; αAllylPro = C=CC[C@@]1(C(=O)O)CCCN1; tBuAla = CC(C)(C)C[C@H](N)C(=O)O; 3Thi = N[C@@H](Cc1ccsc1)C(=O)O; S8 = C=CCCCCCC[C@](C)(N)C(=O)O
Scale: negative log10 of molar concentration, which is what pIC50 denotes.

Task item: Dear colleague, I am looking for the recorded pIC50 of the following binder: Ac-[αAllylPro]D[tBuAla][B5]DEAAFN[S8][3Thi][Bta]-NH2 (staple 1-4, 4-11) [I-718]
Reply: 7.09

Task item: For the binder Ac-[αAllylPro]DI[B5]DEAA[Bip]Q[S8]F[Bta]Q-NH2 (staple 1-4, 4-11) [I-723] , what pIC50 is on record?
Reply: 5.42

Task item: Entry Ac-[αAllylPro]DL[B5]DEAAFN[S8][3Thi][Bta]-NH2 (staple 1-4, 4-11) [I-716] has what pIC50?
Reply: 7.04

Task item: Consider the binder shown here: Ac-[αAllylPro]D[tBuAla][B5(3)]DEAAFN[S8]F[Bta]-NH2 (staple 1-4, 4-11) [I-712] What is its recorded pIC50?
Reply: 7.04
